Assay: Quantitative High-Throughput drug screen in 47 multiple myeloma cell lines against the NCATS MIPE library collection: KMS34_JCRB cell viability assay (AID 1918985); note: nearly all actives have a fitted effect of over 40% in size
Conditions: KMS34 myeloma viability, CellTiter-Glo ATP luminescence, 48 h; series mostly up to 45.8 µM
Results filed as inconclusive are left out. Active and inactive are the calls of the source. Calls come from the whole dose curve; as a rule, active = well fitted cell-killing curve with a large enough effect; inconclusive = small, poorly fitted or top-dose-only effect, or effect the other way; inactive = no such curve, though single readings can be large or run the other way. Peptide text beside a SMILES is read from it.
Write down one outcome, taken from active, inactive

C=C(c1ccc(C(=O)O)cc1)c1cc2c(cc1C)C(C)(C)CCC2(C)C
inactive
O=Nc1c(-c2c(O)[nH]c3cc(Br)ccc23)[nH]c2ccccc12
active
CC[C@]1(O)C[C@H]2CN(CCc3c([nH]c4ccccc34)[C@@](C(=O)OC)(c3cc4c(cc3OC)N(C=O)[C@H]3[C@@](O)(C(=O)OC)[C@H](OC(C)=O)[C@]5(CC)C=CCN6CC[C@]43[C@@H]65)C2)C1
active
CNC[C@H](O)c1ccc(O)c(O)c1
active
COCCCOc1ccnc(CS(=O)c2nc3ccccc3[nH]2)c1C (centres undefined)
inactive
Cc1nc2n(c(=O)c1CCN1CCC(c3noc4cc(F)ccc34)CC1)CCCC2
inactive

Short answer needed: outcome of this test for Oc1ccc(OCc2ccccc2)cc1 ? active

Short answer needed: outcome of this test for COC(=O)[C@H](Cc1ccccc1)NC(=O)[C@@H](N)CC(=O)O (H-Asp-Phe-OMe) ? inactive

Short answer needed: outcome of this test for Nc1cc(C(Cl)=C(Cl)Cl)c(S(N)(=O)=O)cc1S(N)(=O)=O ? inactive
